Tested on: rodent lifetime carcinogenesis bioassay, tumor incidence TD50
Assay: carcinogenic potency in animals, long-term in vivo studies, CPDB compilation (AID 1745844)
Conditions: mouse; strain Swiss albino; females; in drinking water; site: lung; lesion: several types; types named in the paper; dosed 94 weeks; study length 94 weeks
readout.kind: TD50

smiles_input=CC(=O)NNC(=O)c1ccncc1 readout_kind=TD50 measured_result="319 mg/kg/day"

Short answer for CCCCCNN : TD50 was 5.87 mg/kg/day

* * *

System: rodent lifetime carcinogenesis bioassay, tumor incidence TD50
Assay: carcinogenic potency in animals, long-term in vivo studies, CPDB compilation (AID 1745844)
Details: rat; strain BD VI; females; by gavage; site: any site (literature study); lesion: malignant tumor; dosed 72 weeks; study length 72 weeks
readout.kind: TD50 (mg/kg/day)
The reply should be a number in mg/kg/day, with the unit left off.

Entry CN(N=O)c1ccccn1 ; TD50 = 0.668

* * *

Tested on: rodent lifetime carcinogenesis bioassay, tumor incidence TD50
Experiment: carcinogenic potency in animals, long-term in vivo studies, CPDB compilation (AID 1745844)
Settings: mouse; strain Charles River CD1; males; in feed; site: lung; lesion: adenoma; dosed 78 weeks; study length 92 weeks
The source made the active and inactive calls. The rule behind the calls is not given here.
readout.kind: TD50

// assay rodent lifetime carcinogenesis bioassay, tumor incidence TD50, entry CC(C)NCC(O)c1ccc(NS(C)(=O)=O)cc1 (stereo unspecified) , TD50 value = 31400 mg/kg/day (inactive)

* * *

Test system: rodent lifetime carcinogenesis bioassay, tumor incidence TD50
Assay: carcinogenic potency in animals, long-term in vivo studies, CPDB compilation (AID 1745844)
Settings: rat; strain Sprague-Dawley; females; in feed; site: mammary gland; lesion: adenocarcinoma; dosed 46 weeks; study length 66 weeks
readout.kind: TD50

Example cases with answers are listed next.
compound=NC(=O)C(=Cc1ccc([N+](=O)[O-])o1)c1ccco1 readout_kind=TD50 measured_result="26.4 mg/kg/day"
compound="O=C1OC(CN2CCOCC2)CN1/N=C/c1ccc([N+](=O)[O-])o1 (stereo unspecified)" readout_kind=TD50 measured_result="6.33 mg/kg/day"
compound=CC(=O)Nc1nc(-c2ccc([N+](=O)[O-])o2)cs1 readout_kind=TD50 measured_result="36.2 mg/kg/day"
compound=CN(C)Nc1nc(-c2ccc([N+](=O)[O-])o2)cs1 readout_kind=TD50 measured_result="0.391 mg/kg/day"
compound=O=C(Nc1nc(-c2ccc([N+](=O)[O-])o2)cs1)C(F)(F)F readout_kind=TD50 measured_result="7.27 mg/kg/day"

Consider the record given below.
The reported value for O=C1NCCN1/N=C/c1ccc([N+](=O)[O-])o1 in terms of TD50 is 5.26 mg/kg/day

* * *

Tested on: rodent lifetime carcinogenesis bioassay, tumor incidence TD50
Experiment: carcinogenic potency in animals, long-term in vivo studies, CPDB compilation (AID 1745844)
Settings: mouse; strain B6C3F1; males; inhaled; site: forestomach; lesion: squamous-cell carcinoma + squamous-cell papilloma; dosed 60 weeks; study length 60 weeks
readout.kind: TD50 (mg/kg/day)
Answer with a number only, understood to be in mg/kg/day.

Considering C=CC=C , its TD50 with rodent lifetime carcinogenesis bioassay, tumor incidence TD50 was recorded as 557

* * *

Tested on: rodent lifetime carcinogenesis bioassay, tumor incidence TD50
Assay: carcinogenic potency in animals, long-term in vivo studies, CPDB compilation (AID 1745844)
Details: rat; strain Fischer 344; males; in feed; site: pituitary gland; lesion: carcinoma, NOS; dosed 109 weeks; study length 109 weeks
Active and inactive are the calls of the source. No rule for the calls is given here.
readout.kind: TD50

Lab note: measured TD50 of NC(=S)NNC(N)=S was 2620 mg/kg/day (inactive)
